Measurement Description: qHTS of pediatric cancer cell lines to identify multiple opportunities for drug repurposing: Confirmatory screen for SJ-GBM2 cells (AID 1347116);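 note: 48 hour compound exposure; nearly all actives have a fitted effect of over 60% in size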
Setup Conditions: SJ-GBM2 glioblastoma cells, viability; series mostly up to 45.9 µM
Records with an inconclusive call do not appear. The source made the active and inactive calls. Calls come from the whole dose curve; as a rule, active = well fitted cell-killing curve with a large enough effect; inconclusive = small, poorly fitted or top-dose-only effect, or effect the other way; inactive = no such curve, though single readings can be large or run the other way.
Response enum: active, inactive

- COc1ccc2c(c1)CN(C)CC2c1ccc(Cl)c(Cl)c1 (centres undefined): active
- C[C@@]12OC(=O)[C@]1([C@@H](O)[C@@H]1C=CCCC1)NC(=O)[C@H]2CCCl: active
- CC[C@@]1(O)C(=O)OCc2c1cc1n(c2=O)Cc2cc3ccccc3nc2-1: active

Now take the following compound into account.
Q: Field: outcome | Entry: COc1cc([C@@H]2c3cc4c(cc3[C@@H](O)C3COC(=O)C32)OCO4)cc(OC)c1O (some centres undefined)
Result: inactive
